Reported hepatocyte CLint at 5 μM is given for each of the following compounds.
- Experiment Notes: In vitro intrinsic clearance in human hepatocytes, D2, D6 and D8 DMT (third experiment)
- Condition Context: both, hepatocytes (pooled, 10 donors)
Numbers only; they are read as µL/min/1e6 cells.

Item under review: [2H]C([2H])(Cc1c[nH]c2ccccc12)N(C)C [SPL028i, α,α-dideutero-N,N-dimethyltryptamine] . Reported hepatocyte CLint at 5 μM?
8.3

Query (compound): `COc1ccc([C@@H]2Sc3ccccc3N(CCN(C)C)C(=O)[C@@H]2OC(C)=O)cc1` ; field requested: hepatocyte CLint at 5 μM
22

Endpoint output: hepatocyte CLint at 5 μM of `CN(C)CCc1c[nH]c2ccccc12` . Value?
19.4

Returns the measured hepatocyte CLint at 5 μM for the input compound. Input: `O=C(O)Cc1ccccc1Nc1c(Cl)cccc1Cl`
92.5

###

- Experiment Notes: In vitro intrinsic clearance in human hepatocytes with and without MAO inhibitors (first experiment)
- Condition Context: both, human, hepatocytes (pooled, 10 donors), Half-life With inhibitors, human hepatocytes, with MAO-A/B inhibitor combination (Table 5)
half-life at 5 μM for assorted molecules
Hi! Could you send only the number? It should be in h, unit omitted.

Report half-life at 5 μM for CN(C)CCc1c[nH]c2ccccc12 [SPL026, N,N-dimethyltryptamine] please.
1.6

// half-life at 5 μM lookup, key: [2H]C([2H])(Cc1c[nH]c2ccccc12)N(C)C [SPL028i, α,α-dideutero-N,N-dimethyltryptamine]
2.83

Which half-life at 5 μM is listed for NCc1ccccc1 [Benzylamine] ?
7.67

###

- Tested on: Human (mixed gender) hepatocytes
- Experiment Notes: In vitro intrinsic clearance in human hepatocytes with and without MAO inhibitors (first experiment)
- Condition Context: with MAO inhibitors vs no inhibitors, human hepatocytes
Half-life % change values by entry
Please respond with the number in % and leave the unit unwritten.

CN(C)CCc1c[nH]c2ccccc12 | 3.82
[2H]C([2H])(Cc1c[nH]c2ccccc12)N(C)C [SPL028i, α,α-dideutero-N,N-dimethyltryptamine] | −5.33

Attention now turns to another entry.
# query: Half-life % change | item `NCCc1c[nH]c2ccc(O)cc12` | system: Human (mixed gender) hepatocytes
73.75

###

- Experiment Notes: In vitro human mitochondrial fraction intrinsic clearance of SPL026 and SPL028 analogues
- Condition Context: human, liver mitochondrial fraction, Half-Life R2, human liver mitochondrial fraction, replicate R2
Measure: half-life (min)
Answer with a number only, understood to be in min.

NCc1ccccc1 | 22.1
[2H]C([2H])(Cc1c[nH]c2ccccc12)N(C)C [SPL028i, α,α-dideutero-N,N-dimethyltryptamine] | 99.4
CN(C)CCc1c[nH]c2ccccc12 | 8.4

Please examine the following record next.
Query (compound): `NCCc1c[nH]c2ccc(O)cc12` ; field requested: half-life
9.1

###

- Experiment Notes: In vitro human mitochondrial fraction intrinsic clearance of SPL026 with/without MAO-A and MAO-B inhibitors
- Assay type: in vitro ADME
- Condition Context: with 100 nM Deprenyl/Selegiline (MAO-B inhibitor); 0.5 mg/mL human liver mitochondrial fraction, Deprenyl (MAO-B inhibitor) 100 nM
Measure: microsomal CLint (µL/min/mg)
Provide the reading as a plain figure in µL/min/mg.

Please look up its microsomal CLint: `CN(C)CCc1c[nH]c2ccccc12`
42.7

###

- Experiment Notes: In vitro human mitochondrial fraction intrinsic clearance of SPL026 and SPL028 analogues
- Condition Context: human, liver mitochondrial fraction, Intrinsic Clearance, 0.5 mg/mL human liver mitochondrial fraction; first experiment r7-r12, repeat r13-r20
Measure: microsomal CLint (µL/min/mg)
Give the value in µL/min/mg but do not write µL/min/mg after it.

Some molecules with known microsomal CLint results, for comparison:
[2H]C([2H])([2H])N(C([2H])([2H])[2H])C([2H])([2H])Cc1c[nH]c2ccccc12 [SPL028viii] | 10.9
[2H]C([2H])([2H])N(CCc1c[nH]c2ccccc12)C([2H])([2H])[2H] [SPL028vii, N,N-bis(trideutero)dimethyltryptamine] | 137
NCCc1c[nH]c2ccc(O)cc12 [Serotonin] | 151
CN(C)CCc1c[nH]c2ccccc12 [SPL026, N,N-dimethyltryptamine] | 175

Alright, here's another molecule for you.
Please give the measured microsomal CLint for this molecule: NCc1ccccc1 [Benzylamine]
60

###

Consider the following molecules and their measured Intrinsic clearance % change readings.
- Test system: Human (mixed gender) hepatocytes
- Experiment Notes: In vitro intrinsic clearance in human hepatocytes with and without MAO inhibitors (first experiment)
- Condition Context: with MAO inhibitors vs no inhibitors, human hepatocytes

CN(C)CCc1c[nH]c2ccccc12 | −4.00%
[2H]C([2H])(Cc1c[nH]c2ccccc12)N(C)C [SPL028i, α,α-dideutero-N,N-dimethyltryptamine] | 4.67%
NCc1ccccc1 | <−450%

Checklist item: Intrinsic clearance % change tested on Human (mixed gender) hepatocytes, entry `NCCc1c[nH]c2ccc(O)cc12` , value?
−282.18%

###

- Experiment Notes: In vitro human mitochondrial fraction intrinsic clearance of SPL026 and SPL028 analogues
- Condition Context: human, liver mitochondrial fraction, Half-Life R1, human liver mitochondrial fraction, replicate R1
Some compounds, each annotated with its measured half-life.
Number in min, nothing else.

# count of solved cases: 3
CN(C)CCc1c[nH]c2ccccc12 [SPL026, N,N-dimethyltryptamine] | 8.8
[2H]C([2H])(Cc1c[nH]c2ccccc12)N(C)C [SPL028i, α,α-dideutero-N,N-dimethyltryptamine] | 86.1
NCCc1c[nH]c2ccc(O)cc12 [Serotonin] | 9.3

Please turn your attention to the following entry.
Requested read-out: half-life. Entry: NCc1ccccc1 [Benzylamine]
24.3

###

This listing pairs compounds with measured half-life.
- Experiment Notes: In vitro human mitochondrial fraction intrinsic clearance of SPL026 with/without MAO-A and MAO-B inhibitors
- Assay type: in vitro ADME
- Condition Context: 0.5 mg/mL human liver mitochondrial fraction, DMSO Vehicle (no inhibitor)
Numeric only. Scale: min

As a guide, the following entries are already answered.
NCc1ccccc1 | 30.4
NCCc1c[nH]c2ccc(O)cc12 | 11.1

State the recorded half-life for this entry: `CN(C)CCc1c[nH]c2ccccc12`
33.7

###

- Experiment Notes: In vitro intrinsic clearance in human hepatocytes with and without MAO inhibitors (first experiment)
- Condition Context: both, human, hepatocytes (pooled, 10 donors), Half-life Without inhibitors, human hepatocytes, without MAO-A/B inhibitor combination (Table 5)
Measure: half-life at 5 μM (h)
Value expressed in h; do not type the unit.

NCCc1c[nH]c2ccc(O)cc12 | 0.55
NCc1ccccc1 | 1.27

Note: attention shifts to another entry.
State the recorded half-life at 5 μM for this entry: `CN(C)CCc1c[nH]c2ccccc12`
1.54

###

- Experiment Notes: In vitro human mitochondrial fraction intrinsic clearance of SPL026 and SPL028 analogues
- Condition Context: 0.5 mg/mL human liver mitochondrial fraction; first experiment r7-r12, repeat r13-r20
Intrinsic Clearance reference
# unit: μL/min/mg protein | format: bare number

Worked examples follow.
NCc1ccccc1 [Benzylamine] | 62.1
CN(C)CCc1c[nH]c2ccccc12 [SPL026, N,N-dimethyltryptamine] | 161.0
NCCc1c[nH]c2ccc(O)cc12 [Serotonin] | 157.0

The record that follows has no Intrinsic Clearance shown yet.
What does the record list as Intrinsic Clearance for [2H]C([2H])([2H])N(C([2H])([2H])[2H])C([2H])([2H])Cc1c[nH]c2ccccc12 [SPL028viii] ?
12.7

###

- Experiment Notes: In vitro human mitochondrial fraction intrinsic clearance of SPL026 with/without MAO-A and MAO-B inhibitors
- Assay type: in vitro ADME
- Condition Context: with 100 nM clorgyline (MAO-A inhibitor); 0.5 mg/mL human liver mitochondrial fraction, Clorgyline (MAO-A inhibitor) 100 nM
This listing pairs compounds with measured microsomal CLint.

CN(C)CCc1c[nH]c2ccccc12 | < 3.9 µL/min/mg

Dear colleague, I am looking for the recorded microsomal CLint of the following compound: `NCCc1c[nH]c2ccc(O)cc12`
< 3.3 µL/min/mg

###

- Experiment Notes: In vitro intrinsic clearance in human hepatocytes with and without MAO inhibitors (first experiment)
- Condition Context: both, human, hepatocytes (pooled, 10 donors), Intrinsic clearance With inhibitors, human hepatocytes, with MAO-A/B inhibitor combination (Table 5)
The compounds listed here are annotated with their hepatocyte CLint at 5 μM.
The reply should contain only the number, in µL/min/1e6 cells.

Example entries and their recorded answers appear below.
NCCc1c[nH]c2ccc(O)cc12 | 10.1
CN(C)CCc1c[nH]c2ccccc12 | 13.2

Recorded hepatocyte CLint at 5 μM of [2H]C([2H])(Cc1c[nH]c2ccccc12)N(C)C [SPL028i, α,α-dideutero-N,N-dimethyltryptamine] , please.
7.5

###

- Experiment Notes: In vitro human mitochondrial fraction intrinsic clearance of SPL026 and SPL028 analogues
- Condition Context: human, liver mitochondrial fraction, Half-Life R3, human liver mitochondrial fraction, replicate R3
// returns 0 (no) unless half-life is strictly below 80 min, in which case 1 (yes)

[2H]C([2H])([2H])N(C([2H])([2H])[2H])C([2H])([2H])Cc1c[nH]c2ccccc12 [SPL028viii] | 0 (no)

API: query returns whether the compound falls strictly under 80 min in half-life. Query: NCCc1c[nH]c2ccc(O)cc12 [Serotonin]
1 (yes)

Could you please tell me whether half-life recorded for [2H]C([2H])(Cc1c[nH]c2ccccc12)N(C)C [SPL028i, α,α-dideutero-N,N-dimethyltryptamine] is less than 80 min?
0 (no)

Is half-life strictly under 80 min for the entry [2H]C([2H])([2H])N(CCc1c[nH]c2ccccc12)C([2H])([2H])[2H] [SPL028vii, N,N-bis(trideutero)dimethyltryptamine] ?
1 (yes)

Threshold test, half-life < 80 min: NCc1ccccc1 [Benzylamine]
1 (yes)

Dear colleague, could you confirm whether half-life of CN(C)CCc1c[nH]c2ccccc12 [SPL026, N,N-dimethyltryptamine] falls below 80 min? Thanks.
1 (yes)
